# subject.of.test: GABAA2 receptors (α2, β3, γ2 receptor subunits transfected into Sf9 cells) (Homo sapiens, UniProt P18507+P47869)
# Sequence (P47869 29-451): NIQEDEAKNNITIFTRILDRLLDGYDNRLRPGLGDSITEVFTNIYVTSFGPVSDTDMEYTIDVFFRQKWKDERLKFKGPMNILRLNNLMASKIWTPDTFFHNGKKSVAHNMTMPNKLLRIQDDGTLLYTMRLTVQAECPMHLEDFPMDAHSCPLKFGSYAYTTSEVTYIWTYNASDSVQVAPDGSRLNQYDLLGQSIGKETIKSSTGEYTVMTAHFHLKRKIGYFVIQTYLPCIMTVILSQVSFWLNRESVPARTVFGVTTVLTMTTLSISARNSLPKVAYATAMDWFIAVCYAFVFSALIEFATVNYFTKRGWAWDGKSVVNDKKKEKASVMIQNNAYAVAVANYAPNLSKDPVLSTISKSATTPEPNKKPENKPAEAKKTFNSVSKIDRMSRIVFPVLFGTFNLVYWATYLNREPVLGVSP
# Sequence (P28472 26-473 partner): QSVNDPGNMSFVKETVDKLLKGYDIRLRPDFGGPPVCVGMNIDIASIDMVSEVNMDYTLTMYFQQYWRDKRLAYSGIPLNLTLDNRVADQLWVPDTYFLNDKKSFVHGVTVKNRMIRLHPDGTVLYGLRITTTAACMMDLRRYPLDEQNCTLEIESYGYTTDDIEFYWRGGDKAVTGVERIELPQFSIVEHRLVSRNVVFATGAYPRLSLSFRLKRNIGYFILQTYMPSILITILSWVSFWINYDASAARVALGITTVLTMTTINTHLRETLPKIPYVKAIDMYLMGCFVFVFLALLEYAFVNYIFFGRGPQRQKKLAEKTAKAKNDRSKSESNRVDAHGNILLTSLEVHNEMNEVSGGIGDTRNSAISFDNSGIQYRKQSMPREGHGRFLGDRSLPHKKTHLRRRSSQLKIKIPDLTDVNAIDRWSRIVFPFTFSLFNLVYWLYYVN
# Sequence (P18507 40-475): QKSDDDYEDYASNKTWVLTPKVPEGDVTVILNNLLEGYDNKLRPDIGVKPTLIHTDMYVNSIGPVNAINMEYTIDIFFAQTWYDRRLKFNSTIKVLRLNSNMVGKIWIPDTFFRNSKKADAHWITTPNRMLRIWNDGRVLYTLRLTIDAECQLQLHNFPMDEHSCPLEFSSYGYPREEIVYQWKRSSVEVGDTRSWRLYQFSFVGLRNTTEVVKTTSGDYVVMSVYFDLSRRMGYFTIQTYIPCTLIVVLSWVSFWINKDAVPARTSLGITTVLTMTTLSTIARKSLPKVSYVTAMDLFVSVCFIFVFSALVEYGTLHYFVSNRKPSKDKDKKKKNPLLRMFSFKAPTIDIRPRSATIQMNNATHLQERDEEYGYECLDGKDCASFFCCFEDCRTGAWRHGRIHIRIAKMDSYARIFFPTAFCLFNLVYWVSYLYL
# protocol.description: GABAA2 Binding Method ([3H]-Flunitrazepam displacement)
# condition.description: [3H]-Flunitrazepam ~2 nM, α2β3γ2 Sf9 membranes, 1 hr at 4° C.
# Description: In some embodiments, the binding test is directed to a subtype of GABAA receptors, such as GABAA1 receptors (i.e., those containing the α1 subunit), GABAA2 receptors (i.e., those containing the α2 subunit), GABAA3 receptors (i.e., those containing the α3 subunit) and GABAA5 receptors (i.e., those containing the α5 subunit). [^3H]-Flunitrazepam (Cat #NET567): Prepare 10× stock=20 nM, [F} in assay=˜2 nM 1. […] Data is analyzed by calculating percent of control, IC50, and Ki in an XLfit template. […]
Let's look at some compounds and their measured Ki.

compound | Ki, nM
COc1ccc(CN2Cc3nc4c(-c5cc(C)ccc5OC)cccc4c(N)c3C2=O)cc1OC | 9.18
CN1Cc2nc3c(-c4ccccc4C#N)cccc3c(N)c2C1=O | 64.3
COc1ccc(F)cc1-c1cccc2c(N)c3c(nc12)CN(C1CC1)C3=O | 73.4
CCCN1Cc2nc3c(-c4cc(C)cnc4F)cccc3c(N)c2C1=O | 7.55
Nc1c2c(nc3c(-c4ccc(F)cc4F)cccc13)CN(C1CC1)C2=O | 20
COc1ccncc1-c1cccc2c(N)c3c(nc12)CN(C1CC1)C3=O | 8.1
COc1cccc(-c2cccc3c(N)c4c(nc23)CN(C2CC2)C4=O)c1F | 18.2
Nc1c2c(nc3c(-c4cccnc4)cccc13)CN(C1CC1)C2=O | 64.7
COc1ccccc1-c1c(F)ccc2c(N)c3c(nc12)CN(C1CC1)C3=O | 3.72
CCCN1Cc2nc3c(-c4ccc(Cl)nc4C)cccc3c(N)c2C1=O | 23.1
Nc1c2c(nc3c(-c4cccnc4F)cccc13)CN(C1CCC1)C2=O | 2.56
CCCN1Cc2nc3c(-c4cc(C(F)(F)F)ccc4F)cccc3c(N)c2C1=O | 24
COc1ccc(-c2cccc3c(N)c4c(nc23)CN(C)C4=O)c(OC)c1 | 79
CCCN1Cc2nc3c(-c4cccnc4OCC)cccc3c(N)c2C1=O | 15
Nc1c2c(nc3c(-c4cc(F)ccc4F)cccc13)CN(C1CC1)C2=O | 6.83
Nc1c2c(nc3c(-c4ccccc4F)cccc13)CN(C1CCC1)C2=O | 0.945
CCCN1Cc2nc3c(-c4ccc(C)cc4)cccc3c(N)c2C1=O | 80.7
CCN1Cc2nc3c(-c4cc(OC)ccc4F)cccc3c(N)c2C1=O | 13.3
COc1ccc(CN2Cc3nc4c(-c5ccc(Cl)nc5)cccc4c(N)c3C2=O)cc1OC | 45.9
COc1ccncc1-c1cccc2c(N)c3c(nc12)CN(C1CCC1)C3=O | 1.84
CCN1Cc2nc3c(-c4ccc(OC)cc4OC)c(F)ccc3c(N)c2C1=O | 4.84
COc1ccc(OC)c(-c2c(SC)ccc3c(N)c4c(nc23)CN(C2CC2)C4=O)c1 | 36.7
COc1cc(F)ccc1-c1cccc2c(N)c3c(nc12)CN(C1CC1)C3=O | 83.1
CCN1Cc2nc3c(-c4ccccc4OC)c(F)ccc3c(N)c2C1=O | 13.2
COc1ncc(-c2c(F)ccc3c(N)c4c(nc23)CN(C2CCC2)C4=O)c(OC)n1 | 0.953
CCCN1Cc2nc3c(-c4cc(Br)cnc4OC)cccc3c(N)c2C1=O | 10.6
N#Cc1ccc(-c2cccc3c(N)c4c(nc23)CN(C2CCC2)C4=O)cn1 | 15.6
COc1ccccc1-c1cccc2c(N)c3c(nc12)CN(C1CC1)C3=O | 54.1
CCCN1Cc2nc3c(-c4cc(C)ccc4C)cccc3c(N)c2C1=O | 56.8
COc1ncccc1-c1c(F)ccc2c(N)c3c(nc12)CN(C1CCOC1)C3=O (centres unmarked) | 18.8
Nc1c2c(nc3c(-c4cncnc4)c(F)ccc13)CN(C1CCC1)C2=O | 1.46
CCN1Cc2nc3c(-c4ccc(OC)nc4OC)cccc3c(N)c2C1=O | 50.1
COc1ccc(C)cc1-c1c(F)ccc2c(N)c3c(nc12)CN(C1CC1)C3=O | 7.65
CCCN1Cc2nc3c(-c4cc(F)cnc4Cl)cccc3c(N)c2C1=O | 16.3
COc1cccc(F)c1-c1cccc2c(N)c3c(nc12)CN(C1CC(C)C1)C3=O (centres unmarked) | 3.75
COc1ccc(-c2cccc3c(N)c4c(nc23)CN(C2CCC2)C4=O)c(OC)c1 | 2.13
Nc1c2c(nc3c(-c4cc(F)cc(F)c4)cccc13)CN(C1CCC1)C2=O | 39.3
COc1ccc(-c2cccc3c(N)c4c(nc23)CN([C@H]2C[C@@H](C)C2)C4=O)c(C)n1 | 4.65
COc1cccc(-c2c(F)ccc3c(N)c4c(nc23)CN(C2CC2)C4=O)c1F | 2.68
CCN1Cc2nc3c(-c4ccc(F)c(OC)c4)cccc3c(N)c2C1=O | 25.5
Cc1cc(-c2cccc3c(N)c4c(nc23)CN(C2CCC2)C4=O)cnc1F | 8.54

----------
Let's look at some molecules and their measured Relative Potentiation for GABAA2.
# subject.of.test: GABAA receptor α2β3γ2 (Homo sapiens, UniProt P18507+P47869)
# Construct: expressed in transfected cells; host or cells: Xenopus laevis oocytes injected with cRNA
# Sequence (P47869 29-451): as the sequence (P47869 29-451) above
# Sequence (P28472 26-473 partner): as the sequence (P28472 26-473 partner) above
# Sequence (P18507 40-475): as the sequence (P18507 40-475) above
# protocol.description: Two-electrode voltage-clamp potentiation of GABA EC10 current in Xenopus oocytes, GABAA2
# Format: cell-based
# condition.description: percentage potentiation of GABA EC10 current divided by that of diazepam

molecule | subject.of.test | Relative Potentiation for GABAA2
Nc1c2c(nc3c(-c4c(F)cccc4F)cccc13)CN(C1CC1)C2=O [Example 114] | GABAA receptor α2β3γ2 (Homo sapiens, UniProt P18507+P47869) | 0.13
Nc1c2c(nc3c(-c4ccccc4F)cccc13)CN(C1CC1)C2=O | GABAA receptor α2β3γ2 (Homo sapiens, UniProt P18507+P47869) | 0.16
COc1cc(-c2cccc3c(N)c4c(nc23)CN(C2CCC2)C4=O)c(F)cn1 | GABAA receptor α2β3γ2 (Homo sapiens, UniProt P18507+P47869) | 0.33
CCCN1Cc2nc3c(-c4cccnc4OC)cccc3c(N)c2C1=O | GABAA receptor α2β3γ2 (Homo sapiens, UniProt P18507+P47869) | 0.58
COc1cnc(OC)c(-c2cccc3c(N)c4c(nc23)CN(C2CCC2)C4=O)c1 | GABAA receptor α2β3γ2 (Homo sapiens, UniProt P18507+P47869) | 0.47

----------
# subject.of.test: GABAA receptor α1β2γ2 (Homo sapiens, UniProt P14867+P18507)
# Construct: expressed in transfected cells; host or cells: Xenopus laevis oocytes injected with cRNA
# Sequence (P14867 28-456): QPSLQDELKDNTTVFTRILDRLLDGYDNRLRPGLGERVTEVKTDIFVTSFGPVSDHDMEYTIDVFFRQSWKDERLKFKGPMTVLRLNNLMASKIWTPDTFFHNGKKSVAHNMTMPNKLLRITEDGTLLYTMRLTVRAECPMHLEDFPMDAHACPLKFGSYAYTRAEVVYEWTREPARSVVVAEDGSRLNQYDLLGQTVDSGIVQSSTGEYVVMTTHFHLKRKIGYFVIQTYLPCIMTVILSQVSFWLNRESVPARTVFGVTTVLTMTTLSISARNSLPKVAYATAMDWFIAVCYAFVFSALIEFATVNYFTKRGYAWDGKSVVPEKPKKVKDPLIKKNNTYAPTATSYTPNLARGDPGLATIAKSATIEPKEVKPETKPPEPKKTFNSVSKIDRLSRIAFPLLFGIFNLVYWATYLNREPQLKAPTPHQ
# Sequence (P47870 25-512 partner limits assumed): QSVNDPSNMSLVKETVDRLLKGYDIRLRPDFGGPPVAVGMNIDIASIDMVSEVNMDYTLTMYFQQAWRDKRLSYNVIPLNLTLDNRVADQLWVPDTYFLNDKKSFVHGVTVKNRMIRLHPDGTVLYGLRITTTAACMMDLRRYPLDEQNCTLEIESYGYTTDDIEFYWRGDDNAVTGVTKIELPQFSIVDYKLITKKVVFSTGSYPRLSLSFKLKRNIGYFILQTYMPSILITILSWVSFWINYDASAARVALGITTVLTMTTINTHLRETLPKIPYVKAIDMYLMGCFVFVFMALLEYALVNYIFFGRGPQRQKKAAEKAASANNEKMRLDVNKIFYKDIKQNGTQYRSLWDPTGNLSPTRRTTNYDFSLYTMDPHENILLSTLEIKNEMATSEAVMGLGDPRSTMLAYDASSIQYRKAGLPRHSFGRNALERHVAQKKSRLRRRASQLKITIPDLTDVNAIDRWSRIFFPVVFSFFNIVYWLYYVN
# Sequence (P18507 40-475): as the sequence (P18507 40-475) above
# protocol.description: Two-electrode voltage-clamp potentiation of GABA EC10 current in Xenopus oocytes, GABAA1
# Format: cell-based
# condition.description: percentage potentiation of GABA EC10 current divided by that of diazepam
Classes are defined on Relative Potentiation for GABAA1 with ranges bottom range (below 0.005), center range (0.005 to below 0.4), top range (0.4 or more)

structure.notation | assigned.category
COc1ccc(CN2Cc3nc4c(-c5ccc(-c6ccc(Cl)nc6)nc5)cccc4c(N)c3C2=O)cc1OC | bottom range
COc1cccc(-c2cccc3c(N)c4c(nc23)CN(C2CCC2)C4=O)c1C#N | bottom range
Cc1cccc(C)c1-c1cccc2c(N)c3c(nc12)CN(C1CC1)C3=O | bottom range
CCCN1Cc2nc3c(-c4cc(C)cnc4OC)cccc3c(N)c2C1=O | top range
CCCN1Cc2nc3c(-c4cccc(C)c4)cccc3c(N)c2C1=O | center range
COc1ccc(CN2Cc3nc4c(-c5ccc(OC)c(OC)c5)cccc4c(N)c3C2=O)cc1 | top range
CCCN1Cc2nc3c(-c4cccnc4OCC)cccc3c(N)c2C1=O | top range
CCCN1Cc2nc3c(-c4cc(F)ccc4OC)cccc3c(N)c2C1=O | center range
COc1ccc(F)cc1-c1c(F)ccc2c(N)c3c(nc12)CN(C1CCC1)C3=O | center range

----------
# subject.of.test: GABAA receptor α1β2γ2 (Homo sapiens, UniProt P14867+P18507)
# Construct: expressed in transfected cells; host or cells: Xenopus laevis oocytes injected with cRNA
# protocol.description: Two-electrode voltage-clamp potentiation of GABA EC10 current in Xenopus oocytes, GABAA1
# Assay type: cell-based
# condition.description: percentage potentiation of GABA EC10 current divided by that of diazepam
Let's look at some compounds and their measured Relative Potentiation for GABAA1.
recorded.metric: Relative Potentiation for GABAA1

compound | subject.of.test | reported
CCCN1Cc2nc3c(-c4cccc(N(C)C)c4)cccc3c(N)c2C1=O | GABAA receptor α1β2γ2 (Homo sapiens, UniProt P14867+P18507) | 0.27
COc1ccc(CN2Cc3nc4c(-c5cccc(OC)c5F)cccc4c(N)c3C2=O)cc1 | GABAA receptor α1β2γ2 (Homo sapiens, UniProt P14867+P18507) | 0.36
COc1ccc(CN2Cc3nc4c(-c5ccc(C)nc5C)cccc4c(N)c3C2=O)cc1OC | GABAA receptor α1β2γ2 (Homo sapiens, UniProt P14867+P18507) | 0.21
COc1cccc(-c2cccc3c(N)c4c(nc23)CN(C2CCC2)C4=O)c1F | GABAA receptor α1β2γ2 (Homo sapiens, UniProt P14867+P18507) | 0.062
COc1cccc(F)c1-c1cccc2c(N)c3c(nc12)CN(C1CC(C)C1)C3=O (stereo not drawn) | GABAA receptor α1β2γ2 (Homo sapiens, UniProt P14867+P18507) | 0.11
COc1ccc(-c2cccc3c(N)c4c(nc23)CN(C2CCC2)C4=O)c(OC)n1 [Example 64] | GABAA receptor α1β2γ2 (Homo sapiens, UniProt P14867+P18507) | 0.06
COc1ccc(-c2c(F)ccc3c(N)c4c(nc23)CN(C2CCC2)C4=O)c(C)n1 | GABAA receptor α1β2γ2 (Homo sapiens, UniProt P14867+P18507) | 0.042
CCCN1Cc2nc3c(-c4cnc(F)c(C)c4)cccc3c(N)c2C1=O | GABAA receptor α1β2γ2 (Homo sapiens, UniProt P14867+P18507) | 0.31
COc1ccc(OC)c(CN2Cc3nc4c(-c5cccnc5OC)cccc4c(N)c3C2=O)c1 [Example 4] | GABAA receptor α1β2γ2 (Homo sapiens, UniProt P14867+P18507) | 0.013
